B1: LINE1-full (parent)
chain: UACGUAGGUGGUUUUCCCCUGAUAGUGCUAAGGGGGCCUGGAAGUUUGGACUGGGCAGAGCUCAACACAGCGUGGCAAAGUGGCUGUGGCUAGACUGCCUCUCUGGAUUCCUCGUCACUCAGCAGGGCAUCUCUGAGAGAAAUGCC

variants of: B1; experiment: self-cleavage, relative activity (ratio to wild type); higher = more cleavage; in vitro, sequencing; the parent is a self-cleaving ribozyme
Value Kind: self-cleavage
// no unit, no text: just the number

Query: For the variant C38U A64U , what self-cleavage is on record?
Result: 0.35

Query: For the variant A57U A129G , what self-cleavage is on record?
Result: 0.13

Query: For the variant C84U U87C , what self-cleavage is on record?
Result: 0.04

Query: For the variant A22U U39A , what self-cleavage is on record?
Result: 1.17

Query: For the variant U85A C99G , what self-cleavage is on record?
Result: 0.05

Query: For the variant A94G A136G , what self-cleavage is on record?
Result: 0.34

Query: For the variant G106U A117G , what self-cleavage is on record?
Result: 1.22

Query: For the variant A24U U115A , what self-cleavage is on record?
Result: 1.54

Query: For the variant U13A A64U , what self-cleavage is on record?
Result: 0.25

Query: For the variant G25U U46C , what self-cleavage is on record?
Result: 1.74

Query: For the variant A43U U115C , what self-cleavage is on record?
Result: 1.21

Query: For the variant U73A G122A , what self-cleavage is on record?
Result: 1.98

Query: For the variant U26A U91C , what self-cleavage is on record?
Result: 0.32
